Tested on: G-401 tumor spheroids, viability % test/control
experimentDescription: Anticancer human tumor G-401 cell line growth inhibition;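 note: spheroids exposed to compound for 7 days; 100% = DMSO vehicle-treated spheroids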
appliedConditions: second compound 31.6 µM; first compound 0.1 µM; hits give low values; spheroids with HUVEC and MSC
Below, each of the compounds is paired with its reported viability, T/C value.
Use % as the unit, but write only the number.

Answered examples (3):
[2H]c1nc(C)nc([2H])c1-c1cc(NC[C@@H](C)c2cccc3c(C(=O)NC)ccnc23)ncn1 + Cn1nnc2c(C(N)=O)ncn2c1=O: 101
COc1cc(C)[nH]c(=O)c1CN1CCc2c(Cl)cc(C(OC)C3COC3)c(Cl)c2C1=O (stereo unspecified) + Cn1nnc2c(C(N)=O)ncn2c1=O: 60.8
CC1COCCN1c1cc(-c2ccnn2C)c2ccnc(-c3ccn[nH]3)c2n1 (stereo unspecified) + Cn1nnc2c(C(N)=O)ncn2c1=O: 39

Per the record, CC(C)n1c(=O)n(C)c2cnc3cc(F)c(-c4ccc(OCCCN5CCCCC5)nc4)cc3c21 + Cn1nnc2c(C(N)=O)ncn2c1=O has viability, T/C of 95.4

Per the record, COc1ccc([C@@H](O)c2cc(-c3ncnc4cc(N5CCOCC5)ccc34)c(F)cc2Cl)nn1 + Cn1nnc2c(C(N)=O)ncn2c1=O has viability, T/C of 88.8

Per the record, Cc1cc(C)c(CNC(=O)c2cc(-c3ccc(CN4CCOCC4)cc3)cc3c2cnn3C2CCCC2)c(=O)[nH]1 + Cn1nnc2c(C(N)=O)ncn2c1=O has viability, T/C of 94.4

---

Below, each of the compounds is paired with its reported viability, T/C value.
Test system: G-401 tumor spheroids, viability % test/control
experimentDescription: Anticancer human tumor G-401 cell line growth inhibition;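 note: spheroids exposed to compound for 7 days; 100% = DMSO vehicle-treated spheroids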
appliedConditions: second compound 0.03 µM; first compound 3 µM; hits give low values; spheroids with HUVEC and MSC
Use % as the unit, but write only the number.

Answered examples (3):
Cc1sc2c(c1C)C(c1ccc(Cl)cc1)=NC(CC(=O)Nc1ccc(O)cc1)c1nnc(C)n1-2 (centres undefined) + CC[C@@]1(O)C(=O)OCc2c1cc1n(c2=O)Cc2cc3c(CN(C)C)c(O)ccc3nc2-1: 1.34
O=C(c1cc(Cc2n[nH]c(=O)c3ccccc23)ccc1F)N1CCN(C(=O)C2CC2)CC1 + CC[C@@]1(O)C(=O)OCc2c1cc1n(c2=O)Cc2cc3c(CN(C)C)c(O)ccc3nc2-1: 9.87
Cn1ncnc1[C@H]1c2n[nH]c(=O)c3cc(F)cc(c23)N[C@@H]1c1ccc(F)cc1 + CC[C@@]1(O)C(=O)OCc2c1cc1n(c2=O)Cc2cc3c(CN(C)C)c(O)ccc3nc2-1: 5.33

Now for the compound whose viability, T/C we want.
Tested system G-401 tumor spheroids, viability % test/control; viability, T/C recorded for CNCc1ccc(-c2cc(-c3nc(-c4ccc(S(=O)(=O)C(C)C)cc4)cnc3N)on2)cc1 + CC[C@@]1(O)C(=O)OCc2c1cc1n(c2=O)Cc2cc3c(CN(C)C)c(O)ccc3nc2-1 was 18.1

---

Below, each of the molecules is paired with its reported viability, T/C value.
Tested on: G-401 tumor spheroids, viability % test/control
experimentDescription: Anticancer human tumor G-401 cell line growth inhibition;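 note: spheroids exposed to compound for 7 days; 100% = DMSO vehicle-treated spheroids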
appliedConditions: second compound 0.3 µM; first compound 0.0949 µM; hits give low values; spheroids with HUVEC and MSC
Use % as the unit, but write only the number.

Cn1ncnc1[C@H]1c2n[nH]c(=O)c3cc(F)cc(c23)N[C@@H]1c1ccc(F)cc1 + CC[C@@]1(O)C(=O)OCc2c1cc1n(c2=O)Cc2cc3c(CN(C)C)c(O)ccc3nc2-1: 4.58
O=C(c1cc(Cc2n[nH]c(=O)c3ccccc23)ccc1F)N1CCN(C(=O)C2CC2)CC1 + CC[C@@]1(O)C(=O)OCc2c1cc1n(c2=O)Cc2cc3c(CN(C)C)c(O)ccc3nc2-1: 4.94
CNCc1ccc(-c2cc(-c3nc(-c4ccc(S(=O)(=O)C(C)C)cc4)cnc3N)on2)cc1 + CC[C@@]1(O)C(=O)OCc2c1cc1n(c2=O)Cc2cc3c(CN(C)C)c(O)ccc3nc2-1: 7.23

Now for the molecule whose viability, T/C we want.
Per the record, Cc1sc2c(c1C)C(c1ccc(Cl)cc1)=NC(CC(=O)Nc1ccc(O)cc1)c1nnc(C)n1-2 (centres undefined) + CC[C@@]1(O)C(=O)OCc2c1cc1n(c2=O)Cc2cc3c(CN(C)C)c(O)ccc3nc2-1 has viability, T/C of 3.23
